Target: HCV NS3 helicase NS3h_1b(con1) (Hepatitis C virus genotype 1b)
Construct: truncated C-terminally His-tagged NS3 proteins lacking the N-terminal protease, called NS3h; His-tag (C); made in house
Test: MBHA screen of NCI mechanistic set library at 20 μM (percent inhibition, compound interference)
Type: biochemical
Settings: compounds at 20 μM, MBHA with a DNA substrate; calculated from Equation 1

>  <compound>
C/C(=N\Nc1nc2ccccc2s1)c1ccncn1

>  <Inh. (%) (Inhibition)>
−26.4

$$$$
>  <compound>
CC[C@](C)(O)C(=O)O[C@H]1C(=O)O[C@@H]2C[C@H]3C(C)=C[C@H](O)[C@@H](O)[C@]3(C)[C@H]3[C@@]4(O)OC[C@]32[C@@H]1[C@@H](C)[C@H]4O

>  <Inh. (%) (Inhibition)>
−20.8

$$$$
>  <compound>
CC(C)(O)CCC(O)C(C)(O)C1CCC2(O)C3=CC(=O)C4(O)CC(O)C(O)CC4(C)C3CCC12C.CC(C)(O)CCC(O)C(C)(O)C1CCC2(O)C3=CC(=O)C4CC(O)C(O)CC4(C)C3CCC12C (stereo not shown)

>  <Inh. (%) (Inhibition)>
7.3

$$$$
>  <compound>
NC(=S)N/N=C/c1ccc(OC(=O)COc2ccccc2Cl)cn1

>  <Inh. (%) (Inhibition)>
6.8

$$$$
>  <compound>
CC(=O)C1=C(O)C2(O)C(=O)c3c(c(C)c4ccc(C)c(O)c4c3O)CC2C(N)C1=O.CCCCCCCCCCCCOS(=O)(=O)O (stereo not shown)

>  <Inh. (%) (Inhibition)>
−5.1

$$$$
>  <compound>
Nc1nc(SCc2ccccc2Cl)c2ncn(C3OC(CO)C(O)C3O)c2n1 (stereo not shown)

>  <Inh. (%) (Inhibition)>
−2.9

$$$$
>  <compound>
COCC(=O)OC1CCn2c1nc1c2C(=O)C(C)=C(NC(C)=O)C1=O (stereo not shown)

>  <Inh. (%) (Inhibition)>
8.1

$$$$

----------
Target: HCV NS3 helicase NS3h_1b(con1) (Hepatitis C virus genotype 1b, UniProt Q9WMX2)
Construct: truncated C-terminally His-tagged NS3 proteins lacking the N-terminal protease, called NS3h; His-tag (C); made in house
Sequence (Q9WMX2 1192-1657): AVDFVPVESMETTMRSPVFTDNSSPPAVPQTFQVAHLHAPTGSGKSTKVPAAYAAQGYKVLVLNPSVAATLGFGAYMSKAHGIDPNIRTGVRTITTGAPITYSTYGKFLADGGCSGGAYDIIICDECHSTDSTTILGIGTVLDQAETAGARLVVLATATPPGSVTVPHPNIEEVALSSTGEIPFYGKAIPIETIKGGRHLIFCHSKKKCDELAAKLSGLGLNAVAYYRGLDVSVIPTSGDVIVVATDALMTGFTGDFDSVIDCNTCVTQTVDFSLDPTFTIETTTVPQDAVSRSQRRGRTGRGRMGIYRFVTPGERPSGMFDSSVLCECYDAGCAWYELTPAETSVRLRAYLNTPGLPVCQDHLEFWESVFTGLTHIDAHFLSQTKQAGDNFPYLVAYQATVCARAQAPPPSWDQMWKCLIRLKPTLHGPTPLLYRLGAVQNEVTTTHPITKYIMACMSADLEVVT
Experiment: MBHA screen of NCI mechanistic set library at 20 μM (percent inhibition, compound interference)
Format: biochemical
Details: compounds at 20 μM, MBHA with DNA substrate; assay interference calculated with Equation 2
# if value of Int.* (Ratio) (Interference) reaches 0.9 Ratio, tag Fulfilled; if it stays below, tag Not fulfilled

>  <compound>
Cc1nc2c(o1)C(=O)c1ccccc1C2=Nc1ccccc1 [Compound 650573]

>  <assigned-label>
Not fulfilled

$$$$
>  <compound>
COC(=O)C1C(O)C(C)C(O)C(C)/C=C\C=C(C)C(=O)Nc2c(C)c(OC(C)=O)c3c(c2O)C(=O)C(C)=C2OCOC(=C23)C(C)=CC(C)(O)C(O)C(C)C1O (stereo not shown) [Compound 19990]

>  <assigned-label>
Fulfilled

$$$$
>  <compound>
O=C1C(c2cnc3ccccc3n2)=C(O)c2ccccc21 [Compound 634224]

>  <assigned-label>
Fulfilled

$$$$
>  <compound>
CC1(c2cccc3ccccc23)OC(=O)c2ccccc21 (stereo not shown) [Compound 97703]

>  <assigned-label>
Fulfilled

$$$$
>  <compound>
CO[C@H]1Nc2c(ccc(C)c2O)C(=O)N2C=C(/C=C/C(N)=O)C[C@@H]12 [Compound 106408]

>  <assigned-label>
Fulfilled

$$$$
>  <compound>
CO[C@@H]1[C@H](O)C[C@@H](O[C@@H]2C[C@H](Oc3cc4cc5c(c(O)c4c(O)c3C)C(=O)[C@@H](O[C@H]3C[C@@H](O[C@H]4C[C@@H](O[C@H]6C[C@](C)(O)[C@@H](OC(C)=O)[C@H](C)O6)[C@H](O)[C@@H](C)O4)[C@H](O)[C@@H](C)O3)[C@H]([C@H](OC)C(=O)[C@@H](O)[C@@H](C)O)C5)O[C@H](C)[C@@H]2OC(C)=O)O[C@@H]1C [Compound 58514]

>  <assigned-label>
Fulfilled

$$$$
>  <compound>
CC1=C2C(=CC(C)(C)[C@@H]2O)C(=O)[C@](C)(O)C12CC2 [Compound 400978]

>  <assigned-label>
Fulfilled

$$$$
>  <compound>
CCN(CC)CCNc1ccc(CO)c2sc3ccccc3c(=O)c12 [Compound 142982]

>  <assigned-label>
Not fulfilled

$$$$
>  <compound>
COc1ccc(Cc2nc3ccccc3s2)cc1OC [Compound 632233]

>  <assigned-label>
Fulfilled

$$$$
